Test system: T-47D breast
Test: NCI-60 one-dose screen, 48 h
Details: 10 µM unless noted
Compounds without any hit were thinned out: in the full panel of roughly 83,000, 20% have a hit. Activity calls are given as the source filed them. How the source made its calls: active means growth percent below 10; inactive means the rest.
Field 'call' accepts YES for active, NO for inactive

Example cases with answers are listed next.
NS(=O)(=O)c1cnccc1-n1ccc(=O)c(S(N)(=O)=O)c1 | NO
CCn1c(Sc2nnc(NC(=O)CSC(=S)N3CCCCC3)s2)nc2c1c(=O)n(C)c(=O)n2C | NO
CO/C(=C1/NC(=O)C(Cc2ccc(O)c(Br)c2)N(C)C(=O)C(C)NC(=O)CCC/C=C(\C)CCC(C)OC1=O)c1ccccc1 (stereo not given) | YES
COc1ccc(/C=C(\C#N)n2nnc3ccccc32)cc1 | NO

API: the following record is the query input.
Which outcome was assigned to CCOC(=O)c1ccc(NC(=O)CCCN(CC)CC)cc1 in this test?
NO

----------
Tested on: SN12C renal
Test: NCI-60 one-dose screen, 48 h
Details: 10 µM unless noted
This is part of a sample that, as a whole, favours compounds with a hit. Of some 83,000 tested, about 20% had one in any assay. Activity calls are given as the source filed them. Rule for the calls: active = growth percent below 10; inactive = the rest.
Field 'call' accepts active, inactive

CC(C)OC(=O)OCOP(=O)(OCOC(=O)OC(C)C)C1CCCN(O)C1=O (stereo not given) | active

API: the following record is the query input.
Which outcome was assigned to COc1cc(C2C=C(c3cccc(NC(C)=O)c3)Nc3ncnn32)cc(OC)c1OC (stereo not given) in this test?
inactive

----------
Test system: HCT-15 colon
Assay: NCI-60 one-dose screen, 48 h
Details: 10 µM unless noted
The panel holds about 83,000 compounds, 20% with a hit somewhere; the sample as a whole holds those more often. The source made the active and inactive calls. The calls were made as follows: active = growth percent below 10; inactive = the rest.
Field 'call' accepts active, inactive

Example cases with answers are listed next.
O=c1ccn(C2OC(F)(CO)C(O)C2F)c(=O)[nH]1 (configuration not stated) | inactive
Nc1ccc(CCCCc2ccccc2)c(Cl)c1 | inactive
CS(=O)(=O)c1ccc(-c2[nH]c3ccc(F)cc3c2/C=N/O)cc1 | inactive
Cc1nc2ccc(C(=O)NCc3cc(C(=O)O)c(C)o3)cc2nc1C | inactive

Which outcome was assigned to COc1ccc(C2CC(c3ccc4ccccc4c3)=NN2c2nc(O)c(C3=c4cc(Cl)ccc4=NC3=O)s2)cc1 (configuration not stated) in this test?
active

Which outcome was assigned to N#Cc1c(N)n2c(nc1=Nc1ccc(Cl)cc1)sc1cc(Cl)ccc12 in this test?
inactive

Which outcome was assigned to O=C(Nc1ccc(N2CCCCC2)c(Cl)c1)c1ccc(Br)o1 in this test?
inactive

Which outcome was assigned to O[C@H]1CO[C@H]2[C@@H]1OC[C@@H]2Oc1ccc(Nc2ccnc(Nc3ccc(O[C@H]4CO[C@H]5[C@@H]4OC[C@@H]5O)c(Cl)c3)n2)cc1Cl in this test?
inactive

Which outcome was assigned to CC(=O)NCC(=O)Nc1ccc(-c2nnc3ccccn23)nc1.CC(=O)NCC(=O)Nc1ccc(-c2nnc3ccccn23)nc1.[Pt+2] in this test?
inactive

----------
System: HCT-116 colon
Test: NCI-60 one-dose screen, 48 h
Conditions: 10 µM unless noted
About 83,000 compounds went through this panel and 20% of them were active in at least one assay; those are over-represented in the sample as a whole. Active and inactive are the calls of the source. The calls were made as follows: active = growth percent below 10; inactive = the rest.
Field 'call' accepts active, inactive

Example cases with answers are listed next.
COc1ccc(/C=C2\C=C(c3ccccc3)N(CCc3ccccc3)C2=O)cc1OC | inactive
COc1ccc(/C=C2\COc3ccc(O)c(O)c3C2=O)c(OC)c1 | inactive
CSc1ccc(Cl)c(C(=O)Nc2sccc2C(N)=O)c1 | inactive

Which outcome was assigned to COc1cc(C(=O)Nc2cc(O)c(CC=C(C)C)c(O)c2)cc2c1O[C@]1(C)CC[C@@H](O)C(C)(C)[C@H]1C2 in this test?
inactive

Which outcome was assigned to NS(=O)(=O)Oc1ccc(-c2sc3cc(O)ccc3c2C(=O)c2ccc(OCCN3CCCCC3)cc2)cc1 in this test?
inactive

Which outcome was assigned to O=C1Nc2ccccc2SC1C1SC(=S)N(Cc2ccccc2)C1=O (stereo not given) in this test?
inactive

Which outcome was assigned to CC1(C)N=C(N)N=C(N)N1c1cccc(CN)c1 in this test?
inactive

Which outcome was assigned to CCOC(=O)C(O)C(O)(c1ccccc1)c1ccccc1 (stereo not given) in this test?
inactive

Which outcome was assigned to O=C(NCCN1CCC(O)CC1)c1cc2c(o1)C(=O)c1ccccc1C2=O in this test?
active

Which outcome was assigned to Cc1ccc(S(=O)(=O)N(CC[C@@H]2C[C@H]2c2cc3ccccc3o2)C(=O)NC2CCCCC2)cc1 in this test?
inactive

Which outcome was assigned to COc1cc(/C=C/c2nc(Nc3ccc(S(=O)(=O)Nc4cc(C)on4)cc3)c3ccccc3n2)ccc1O in this test?
inactive

----------
Tested on: IGROV1 ovarian
Assay: NCI-60 one-dose screen, 48 h (100 = growth as untreated, 0 = no growth, -100 = all killed)
Settings: 10 µM unless noted
This is part of a sample that, as a whole, favours compounds with a hit. Of some 83,000 tested, about 20% had one in any assay.
// returns N unless growth is strictly below 20%, in which case Y

Example cases with answers are listed next.
C=C1C(=O)O[C@H]2[C@H]1CC/C(COC(=O)/C=C\C(=O)NCc1ccc(Cn3c(=O)sn(CCCC)c3=O)cc1)=C\CC[C@@]1(C)O[C@@H]21 | Y
COc1ccc(-c2cncnc2N)cc1OC | N

hey, is growth for O[C@H]1CO[C@H]2[C@@H]1OC[C@@H]2Oc1ccc(Nc2ccnc(Nc3ccc(O[C@H]4CO[C@H]5[C@@H]4OC[C@@H]5O)c(Cl)c3)n2)cc1Cl lower than 20% or not?
Y

hey, is growth for COc1ccc(N(C)c2nc(Cl)nc3cnn(C)c23)cc1 lower than 20% or not?
N

hey, is growth for Cc1cccc(-c2cc(O)c(C(=O)N3CCOCC3)s2)c1 lower than 20% or not?
N

hey, is growth for O=C1NN(C(=O)c2ccc(O)cc2)C(c2ccccc2)=N/C1=C\c1cn(-c2ccccc2)nc1-c1ccccc1 lower than 20% or not?
N

hey, is growth for Cc1nc2ccccc2c(/C=C/c2ccc(Cl)cc2)c1C(=O)/C=C/c1ccc(Cl)cc1 lower than 20% or not?
Y

hey, is growth for CCCNCC(=O)Nc1ccc(C(=O)OC(C)(C)CC)cc1 lower than 20% or not?
N

----------
Test system: MDA-MB-231 breast
Experiment: NCI-60 one-dose screen, 48 h (100 = growth as untreated, 0 = no growth, -100 = all killed)
Conditions: 10 µM unless noted
This is part of a sample that, as a whole, favours compounds with a hit. Of some 83,000 tested, about 20% had one in any assay.
// returns False unless growth is strictly below 40%, in which case True

Example cases with answers are listed next.
CCCCOc1nc2ccc(Cl)cc2cc1/C=C/C(=O)/C=C1/CC(c2cc3cc(Cl)ccc3nc2OCCCC)Nc2ccccc2N1 (stereo not given) | False
COc1ccc(/C=N/NC(=O)Cn2c(-c3ccc(S(C)(=O)=O)cc3)nc3cc(Cl)ccc32)cc1 | True
CC(=O)Nc1ccc(C(=O)/C=C/c2ccccc2)cc1 | False
CCCCCCCSc1ccc(C(=O)O)cc1 | False
O=C(C[C@@]1(O)C(=O)Nc2c(Cl)ccc(Cl)c21)c1ccc(C2CC2)cc1 | False

hey, is growth for N=C(N)c1ccc(-c2ccc(/C=C/c3ccccc3)s2)cc1 lower than 40% or not?
True

hey, is growth for Cc1ccc(Nc2ccc(Nc3ccc(C)cc3S(=O)(=O)O)c3c2C(=O)c2ccccc2C3=O)c(S(=O)(=O)O)c1 lower than 40% or not?
False

hey, is growth for Cc1ccc(/C=C(\C#N)n2nnc3cc(Cl)c(Cl)cc32)cc1 lower than 40% or not?
True

hey, is growth for COc1ccc(OC)c(C(=O)Nc2cccc(-c3cc(=O)c4ccccc4o3)c2)c1 lower than 40% or not?
False

----------
System: OVCAR-5 ovarian
Assay: NCI-60 one-dose screen, 48 h (100 = growth as untreated, 0 = no growth, -100 = all killed)
Conditions: 10 µM unless noted
Method: Growth inhibition of the OVCAR-5 human tumor cell line is measured as a screen for anti-cancer activity. Cells are grown in 96 well plates and exposed to the test compound for 48 hours. Compounds are tested at a single concentration, which is 10^-5 M for most compounds. The reported endpoint is percent growth (GI% or GIPRCNT), where numbers from 0 - 100% represent growth inhibition, and numbers from -100% - 0 represent cell death. For example, a value of 40 represents 60% growth inhibition. […]
About 83,000 compounds went through this panel and 20% of them were active in at least one assay; those are over-represented in the sample as a whole. The source made the active and inactive calls. Rule for the calls: active = growth percent below 10; inactive = the rest.
measure name: growth

Look up growth with OVCAR-5 ovarian for this compound: NS(=O)(=O)c1cnccc1-n1ccc(=O)c(S(N)(=O)=O)c1
89.7% (inactive)
